Biological target: T1, hBCMA (human BCMA) (Homo sapiens, UniProt Q02223)
T1 sequence (Q02223 1-184): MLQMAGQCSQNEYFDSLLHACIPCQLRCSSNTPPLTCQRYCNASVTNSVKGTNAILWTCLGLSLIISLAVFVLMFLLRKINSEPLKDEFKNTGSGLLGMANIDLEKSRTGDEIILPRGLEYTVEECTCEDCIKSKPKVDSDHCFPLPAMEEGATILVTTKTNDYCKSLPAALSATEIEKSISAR
Assay: Kinetics and affinity of hBCMA/human IgG interactions by SPR (Bio-Rad Proteon XPR36)
Assay type: binding
Conditions: huBCMA, 37° C.
Recorded measurements of ka (1/Ms) huBCMA @ 37° C., one per entry
Numbers only here, please. The scale is M⁻¹ s⁻¹.

>>> number("L3.PY/L3.KY/H2.QL: anti-BCMA antibody (antibody, V domains shown) VH: EVQLLESGGGLVQPGGSLRLSCAASGFTFGSYAMTWVRQAPGKGLEWVSAISGSGGNTFYADQLKGRFTISRDNSKNTLYLQMNSLRAEDTAVYYCARVSPIASGMDYWGQGTLVTVSS VL: EIVLTQSPGTLSLSPGERATLSCRASQSVSSSYLAWYQQKPGQAPRLLIYGASSRATGIPDRFSGSGSGTDFTLTISRLEPEDFAVYYCKYYPYPPSFTFGQGTKVEIK")
"3.65e+06"

Now, please, on to the next molecule.
Data request: Need ka (1/Ms) huBCMA @ 37° C., item L3.PY/L1.PS/H3.TAQ: anti-BCMA antibody (antibody, V domains shown) VH: EVQLLESGGGLVQPGGSLRLSCAASGFTFGSYAMTWVRQAPGKGLEWVSAISGSGGNTFYADSVKGRFTISRDNSKNTLYLQMNSLRAEDTAVYYCTRVSPIAAQMDYWGQGTLVTVSS VL: EIVLTQSPGTLSLSPGERATLSCRASQSVSSSYPSWYQQKPGQAPRLLIYGASSRATGIPDRFSGSGSGTDFTLTISRLEPEDFAVYYCQHYPYPPSFTFGQGTKVEIK
Data returned: 3.25e+06
